# Tested on: OVCAR-3 ovarian
# Test Summary: NCI-60 one-dose screen, 48 h (100 = growth as untreated, 0 = no growth, -100 = all killed)
# Measurement Parameters: 10 µM unless noted
Compounds without any hit were thinned out: in the full panel of roughly 83,000, 20% have a hit.
Labelling: growth reported below 60% becomes label 1; at or above becomes label 0.

>>> class("CC(CN1CCN(CCOCCO)CC1)CN1c2ccccc2Sc2ccc(Cl)cc21 (centres undefined)")
"label 0"
>>> class("CC1(C)CC[C@]2(C(=O)N3CCNCC3)CC[C@]3(C)C(=CC[C@@H]4[C@@]5(C)CCC(=O)C(C)(C)[C@@H]5CC[C@]43C)[C@@H]2C1")
"label 0"
>>> class("Fc1ccc2nc(-c3ccc(-c4noc(-c5ccc(Cl)cc5)n4)cc3)[nH]c2c1")
"label 0"
>>> class("CSC1=NC(=Nc2c(C)cccc2C)C2(CCC(C(C)(C)C)CC2)N1c1ccc(Cl)cc1 (centres undefined)")
"label 1"
>>> class("Cc1ccc(-c2cnc3sc4ccc(Cl)cc4n23)cc1")
"label 0"
>>> class("COc1ccc(Nc2ncnc3c2sc2nc(C)cc(C)c23)cc1")
"label 0"
>>> class("CCCCCCCCNC(C)C(O)c1ccc(SC(C)C)cc1 (centres undefined)")
"label 1"
>>> class("CC[C@H](Nc1nc(N)nc(C2CC2)c1C#N)c1nc2cccc(NCc3ccc(C(=O)NO)cc3)c2c(=O)n1-c1ccccc1")
"label 1"
>>> class("O=C1C2=C(C(=O)c3c(O)ccc(O)c31)N(c1ccc(N3CCOCC3)nc1)Cc1ccccc1O2")
"label 1"
>>> class("C=CCn1c(C)nc2cc(Nc3nc(N4CCOCC4)nc4nc[nH]c34)ccc21")
"label 0"
>>> class("CNC(=O)c1ccccc1Sc1ccc2c(/C=C/c3ccccn3)n[nH]c2c1")
"label 1"
>>> class("COc1ccc(-c2nsc3c2NC(=O)CC3c2cccc(F)c2)cc1 (centres undefined)")
"label 1"
>>> class("COc1cccc(CC(C)=C(c2ccc(OCCCN(C)C)cc2)c2ccc(OCCCN(C)C)cc2)c1")
"label 1"
>>> class("O=C(CI)NCCNc1cccc2c(S(=O)(=O)O)cccc12")
"label 0"
>>> class("COc1ccc(/C=C2\\N=C(c3cccnc3)N(c3ccccc3)NC2=O)cc1")
"label 0"
>>> class("Cc1cc(NC(=O)C2c3ccccc3C(=O)N(CC(C)C)C2c2cccs2)no1 (centres undefined)")
"label 1"
>>> class("CCN(C)CCCOc1ccc(/C(=C(\\C)Cc2cccc(OC)c2)c2ccc(OC(C)=O)cc2)cc1")
"label 0"
>>> class("CN=C1C=C/C(=N/N=c2/ccn(O)cc2C)C=C1C")
"label 0"
>>> class("Cc1ccccc1CNc1ncnc2[nH]ncc12")
"label 0"
>>> class("Cc1cc(C)cc(NC(=O)Cn2nncc2CN2C(=O)CSC2=O)c1")
"label 0"
>>> class("CC(C)OC(=O)c1ccc([N+](=O)[O-])cc1")
"label 0"
>>> class("COC(=O)C(CCC(=O)CCl)N1C(=O)c2ccccc2C1=O (centres undefined)")
"label 1"
>>> class("C=CCn1c(SCC(=O)Nc2ccc(C(=O)/C=C/c3ccc(Cl)cc3)cc2)nnc1-c1ccc(Cl)cc1")
"label 0"
>>> class("Clc1ccccc1Nc1nnc(-c2ccncc2)s1")
"label 0"
>>> class("Cn1c(=O)c2c3c(oc2c2ccccc21)C(=O)c1ccccc1C3=O")
"label 1"
>>> class("CCOC(=O)c1c(NC(=O)c2ccccc2)sc2c(O)c(CN(CC)CC)ccc12")
"label 1"
>>> class("C/C(=N\\OC(=O)Nc1ccccc1)c1ccccc1")
"label 0"
>>> class("Brc1cccc(-n2ncc3c(Nc4ccc(-c5nnc(-c6ccccc6)o5)cc4)ncnc32)c1")
"label 0"
>>> class("CCOc1ccc([C@@H]2[C@@H](Oc3ccccc3)C(=O)N2c2cc(OC)c(OC)c(OC)c2)cc1")
"label 1"
